Hello, the source for this data is paper PMC4494889, in case you need it.

molecular target: RIPK2 (Homo sapiens, UniProt O43353); test: ADP-Glo in vitro kinase assay, recombinant RIPK2; format: biochemical
Sequence (O43353 whole entry, species assumed): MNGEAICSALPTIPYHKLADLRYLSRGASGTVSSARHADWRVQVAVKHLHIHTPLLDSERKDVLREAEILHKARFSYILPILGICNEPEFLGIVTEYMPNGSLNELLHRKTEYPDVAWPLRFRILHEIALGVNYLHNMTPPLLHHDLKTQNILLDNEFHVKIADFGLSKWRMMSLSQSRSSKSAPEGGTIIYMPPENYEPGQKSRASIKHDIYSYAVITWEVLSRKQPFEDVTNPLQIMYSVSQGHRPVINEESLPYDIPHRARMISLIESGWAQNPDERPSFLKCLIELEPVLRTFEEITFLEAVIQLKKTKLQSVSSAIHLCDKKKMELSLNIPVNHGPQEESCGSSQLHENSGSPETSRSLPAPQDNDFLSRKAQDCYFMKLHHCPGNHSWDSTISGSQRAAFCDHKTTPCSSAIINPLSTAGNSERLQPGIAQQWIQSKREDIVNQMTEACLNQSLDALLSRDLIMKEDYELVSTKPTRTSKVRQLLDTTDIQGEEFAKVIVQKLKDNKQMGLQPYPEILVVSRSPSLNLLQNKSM
Endpoint Label: IC50 (nM)
Response body: numeric value in nM, unit text excluded.

Ask | Write down IC50 measured for item `CNC(=O)c1cc(Oc2ccc(NC(=O)Nc3cc(C(C)(C)C)nn3-c3ccc4ncccc4c3)c(F)c2)ccn1`
Reply | 520

----------
Record form. Attribute: IC50. Fill in for each entry.
biological target: Abl (Homo sapiens); assay: ADP-Glo in vitro kinase assay, recombinant Abl; assay type: biochemical; conditions: read-out: IC50, nM ADPGlo, Abl; recombinant Abl (1 ng)
Sequence (P00519 whole entry, species assumed): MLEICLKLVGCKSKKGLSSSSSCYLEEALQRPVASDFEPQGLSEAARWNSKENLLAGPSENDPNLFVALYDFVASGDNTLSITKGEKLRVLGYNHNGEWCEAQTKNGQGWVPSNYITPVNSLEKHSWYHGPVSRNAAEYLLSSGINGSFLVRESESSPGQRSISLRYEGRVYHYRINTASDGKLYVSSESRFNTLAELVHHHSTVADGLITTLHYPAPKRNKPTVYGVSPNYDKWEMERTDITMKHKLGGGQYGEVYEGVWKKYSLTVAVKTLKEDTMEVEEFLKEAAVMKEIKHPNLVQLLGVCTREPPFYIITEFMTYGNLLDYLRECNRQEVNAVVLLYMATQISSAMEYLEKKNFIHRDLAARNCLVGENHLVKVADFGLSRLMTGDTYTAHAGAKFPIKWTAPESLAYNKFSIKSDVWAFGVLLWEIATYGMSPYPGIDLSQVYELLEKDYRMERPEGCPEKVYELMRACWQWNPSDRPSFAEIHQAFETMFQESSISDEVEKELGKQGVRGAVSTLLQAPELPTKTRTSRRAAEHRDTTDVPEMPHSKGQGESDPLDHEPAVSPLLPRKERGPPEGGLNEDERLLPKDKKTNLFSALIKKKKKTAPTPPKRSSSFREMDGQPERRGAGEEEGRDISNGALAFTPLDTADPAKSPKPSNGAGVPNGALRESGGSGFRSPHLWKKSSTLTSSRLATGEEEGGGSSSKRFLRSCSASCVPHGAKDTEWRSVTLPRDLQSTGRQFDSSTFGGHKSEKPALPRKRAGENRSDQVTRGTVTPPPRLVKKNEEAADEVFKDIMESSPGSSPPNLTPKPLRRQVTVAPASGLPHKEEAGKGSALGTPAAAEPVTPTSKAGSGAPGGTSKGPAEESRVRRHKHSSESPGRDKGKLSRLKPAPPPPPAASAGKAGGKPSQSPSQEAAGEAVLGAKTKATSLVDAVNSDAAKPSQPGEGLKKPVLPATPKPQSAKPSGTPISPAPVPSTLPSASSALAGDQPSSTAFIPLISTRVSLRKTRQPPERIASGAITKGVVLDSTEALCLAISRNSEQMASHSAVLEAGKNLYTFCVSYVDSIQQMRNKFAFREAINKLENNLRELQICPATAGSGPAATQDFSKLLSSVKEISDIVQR

Ask | Give a short answer stating reported IC50 for CN1C(=O)NC(Cc2c[nH]c3c(Cl)cccc23)C1=O (stereo not drawn) [Nec-1, 7-Cl-O-Nec-1] .
Reply | > 10000 nM

Ask | Provide only the value of recorded IC50 for Cc1ccc(CCCCN2C(=O)NC(Cc3c[nH]c4c(Cl)cccc34)C2=O)cc1C#Cc1cnc2cccnn12 (stereo not drawn) [PN10]
Reply | > 10000 nM

Ask | Please look at this molecule and report its IC50: COc1ccc2c(c1)C1=NN(C(C)=O)C(c3ccc(F)cc3)C1CC2 (stereo not drawn) [Nec-3]
Reply | > 10000 nM

----------
molecular target: RIPK1 (Homo sapiens, UniProt Q13546); assay: ADP-Glo in vitro kinase assay, recombinant RIPK1
Sequence (Q13546 1-327): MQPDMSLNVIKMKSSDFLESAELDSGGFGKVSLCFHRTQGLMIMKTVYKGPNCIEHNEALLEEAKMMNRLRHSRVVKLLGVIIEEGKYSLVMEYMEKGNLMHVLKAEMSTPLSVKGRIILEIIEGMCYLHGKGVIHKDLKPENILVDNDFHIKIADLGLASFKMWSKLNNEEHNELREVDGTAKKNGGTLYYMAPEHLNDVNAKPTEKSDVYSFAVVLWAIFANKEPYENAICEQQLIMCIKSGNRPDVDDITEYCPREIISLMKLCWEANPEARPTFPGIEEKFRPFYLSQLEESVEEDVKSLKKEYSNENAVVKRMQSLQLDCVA
Endpoint Label: pIC50
Formally, pIC50 is defined as -log10 of the concentration c, with c in mol/L.

Ask | Using the record for CNC(=O)c1cc(Oc2ccc(NC(=O)Nc3cc(C(C)(C)C)nn3-c3ccc4ncccc4c3)c(F)c2)ccn1 [DCC-2036] , state its measured pIC50.
Reply | 8.24

----------
biological target: RIPK3 (Homo sapiens); test: ADP-Glo in vitro kinase assay, recombinant RIPK3; type: biochemical
Sequence (Q9Y572 whole entry, species assumed): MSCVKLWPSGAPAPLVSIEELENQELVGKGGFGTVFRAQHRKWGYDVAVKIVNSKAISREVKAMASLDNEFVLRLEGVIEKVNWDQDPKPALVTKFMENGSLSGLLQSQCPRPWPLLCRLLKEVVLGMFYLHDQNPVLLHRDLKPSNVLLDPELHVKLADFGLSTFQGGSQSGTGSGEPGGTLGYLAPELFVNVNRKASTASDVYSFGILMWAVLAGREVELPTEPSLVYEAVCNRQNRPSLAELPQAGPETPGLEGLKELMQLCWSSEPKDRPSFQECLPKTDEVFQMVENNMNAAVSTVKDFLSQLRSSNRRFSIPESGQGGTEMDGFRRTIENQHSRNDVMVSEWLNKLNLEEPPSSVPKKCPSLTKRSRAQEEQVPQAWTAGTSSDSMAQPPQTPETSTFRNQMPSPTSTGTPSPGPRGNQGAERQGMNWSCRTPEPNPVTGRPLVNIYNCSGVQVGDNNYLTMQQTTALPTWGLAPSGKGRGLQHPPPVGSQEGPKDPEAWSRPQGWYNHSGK
Endpoint Label: pIC50
Please keep in mind that pIC50 is minus log10 of the molar concentration; only the number is needed.

Ask | Answer with the recorded pIC50 for the compound listed here: CNC(=O)c1cc(Oc2ccc(NC(=O)Nc3cc(C(C)(C)C)nn3-c3ccc4ncccc4c3)c(F)c2)ccn1 [DCC-2036]
Reply | 7.74

----------
target: RIPK1/RIPK3 “necrosome” complex (Mus musculus, UniProt Q60855); experiment: Necrosome complex formation, co-IP assay in TCZ-stimulated MEFs; format: cell-based; conditions: TCZ 6 hr, RIPK3 immunoprecipitation
Sequence (Q60855 whole entry, one chain of several): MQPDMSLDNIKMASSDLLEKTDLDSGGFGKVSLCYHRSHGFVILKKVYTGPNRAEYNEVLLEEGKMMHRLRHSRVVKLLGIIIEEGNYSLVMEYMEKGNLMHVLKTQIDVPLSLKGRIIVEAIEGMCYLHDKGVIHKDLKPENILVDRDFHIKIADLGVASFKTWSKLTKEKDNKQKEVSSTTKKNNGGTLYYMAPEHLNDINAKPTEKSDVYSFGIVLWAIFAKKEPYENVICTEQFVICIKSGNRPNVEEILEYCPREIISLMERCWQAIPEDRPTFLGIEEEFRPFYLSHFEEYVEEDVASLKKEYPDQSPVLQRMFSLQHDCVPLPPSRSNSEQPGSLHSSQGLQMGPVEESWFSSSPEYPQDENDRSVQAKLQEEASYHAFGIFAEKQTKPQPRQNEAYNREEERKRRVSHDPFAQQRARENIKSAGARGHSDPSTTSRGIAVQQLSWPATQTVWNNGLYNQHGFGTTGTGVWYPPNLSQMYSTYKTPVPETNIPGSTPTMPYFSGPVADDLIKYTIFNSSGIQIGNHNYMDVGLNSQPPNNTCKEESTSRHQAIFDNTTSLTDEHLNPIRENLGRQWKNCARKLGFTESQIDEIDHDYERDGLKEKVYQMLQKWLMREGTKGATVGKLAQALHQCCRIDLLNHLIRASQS
Endpoint Label: inhibition of necrosome complex formation

Ask | Tell me measured inhibition of necrosome complex formation for `CC(C)S(=O)(=O)c1ccc2nccc(Nc3ccc4scnc4c3)c2c1` please.
Reply | not affected

Ask | // fetch inhibition of necrosome complex formation given entry `Cc1cc(-c2cnc(N)c3c(-c4ccc5scnc5c4)csc23)n(C)n1`
Reply | not affected

----------
target: RIPK2 (Homo sapiens, UniProt O43353); test: ADP-Glo in vitro kinase assay, recombinant RIPK2; format: biochemical; conditions: read-out: IC50, nM ADPGlo, RIPK2; recombinant RIPK2 (10 ng)
Would you mind telling me the reported IC50 of each entry?
Lab book: enter the figure in nM, no units written.

Ask | Entry `CN1CCN(Cc2ccc(NC(=O)c3cccc(C#Cc4cnc5cccnn45)c3)cc2C(F)(F)F)CC1` needs its IC50 filled in; supply it.
Reply | 63

Ask | Return the recorded IC50 value; entry: Cc1ccc(CCCCN2C(=O)NC(Cc3c[nH]c4c(Cl)cccc34)C2=O)cc1C#Cc1cnc2cccnn12 (stereo not shown)
Reply | 1400
